Catalogue of MTT Assay (Viability) 4 h d-U937, percentage loss of cell viability values
Test system: Differentiated U937 cells
experimentalProtocol: Cell viability MTT assay
Assay type: cell-based, human
conditionContext: 4 hr in 5% FCS; negative = apparent increase in viability
The answer is to be given in %; state only the numeric part.

Would you please look over these solved cases?
COCC(=O)Nc1cc(Oc2ccc(NC(=O)Nc3cc(C(C)(C)C)nn3-c3ccc(C)cc3)c(Cl)c2C(F)(F)F)ccn1 = −0.4
COCC(=O)Nc1nccc(Oc2ccc(NC(=O)Nc3cc(C(C)(C)C)nn3-c3ccc(C)cc3)c(Cl)c2Cl)n1 = −26.8
Cc1ccc(-n2nc(C3(C)CCCCC3)cc2NC(=O)Nc2ccc(Oc3ccnc(NC(=O)N4CCCC4)c3)c(Cl)c2Cl)cc1 = 1.2

Exercise: Report measured MTT Assay (Viability) 4 h d-U937, percentage loss of cell viability; entry is `COCC(=O)Nc1cc(Oc2c(NC(=O)Nc3cc(C(C)(C)C)nn3-c3ccc(C)cc3)ccc(F)c2F)ccn1`
Solution: 12.3

Exercise: Report measured MTT Assay (Viability) 4 h d-U937, percentage loss of cell viability; entry is `CNC(=O)Nc1cc(Oc2ccc(NC(=O)Nc3cc(C(C)(C)C)nn3-c3ccc(CO)cc3)c(Cl)c2Cl)ccn1`
Solution: −43.8

Exercise: Report measured MTT Assay (Viability) 4 h d-U937, percentage loss of cell viability; entry is `CSc1ccc(-n2nc(C(C)(C)C)cc2NC(=O)Nc2ccc(Oc3ccnc(NC(=O)N4CCCC4)c3)c(Cl)c2Cl)cc1`
Solution: −18.7

Exercise: Report measured MTT Assay (Viability) 4 h d-U937, percentage loss of cell viability; entry is `COCC(=O)Nc1cc(Oc2ccc(NC(=O)Nc3cc(C(C)(C)C)nn3-c3cccc(CO)c3)c(Cl)c2Cl)ncn1`
Solution: −14.4

Exercise: Report measured MTT Assay (Viability) 4 h d-U937, percentage loss of cell viability; entry is `COCC(=O)Nc1cc(Oc2ccc(NC(=O)Nc3cc(C(C)(C)C)nn3-c3ccc(C)cc3)c3ncccc23)ccn1`
Solution: −10.7

Exercise: Report measured MTT Assay (Viability) 4 h d-U937, percentage loss of cell viability; entry is `COc1ccc(-n2nc(C(C)(C)C)cc2NC(=O)Nc2ccc(Oc3ccnc(NC(=O)NCCO)c3)c(Cl)c2Cl)cc1`
Solution: 15.0

Exercise: Report measured MTT Assay (Viability) 4 h d-U937, percentage loss of cell viability; entry is `CNC(=O)Nc1cc(Oc2ccc(NC(=O)Nc3cc(C(C)(C)C)nn3-c3ccc(CO)c(OC)c3)c(Cl)c2Cl)ccn1`
Solution: −1.1

Exercise: Report measured MTT Assay (Viability) 4 h d-U937, percentage loss of cell viability; entry is `COCC(=O)Nc1cc(COc2ccc(NC(=O)Nc3cc(C(C)(C)C)nn3-c3ccc(OC)cc3)c3cccnc23)ccn1`
Solution: −11.5

Exercise: Report measured MTT Assay (Viability) 4 h d-U937, percentage loss of cell viability; entry is `COCC(=O)Nc1cc(Oc2ccc(NC(=O)Nc3cc(C(C)(C)C)nn3-c3ccc(OC)cc3)c(Cl)c2Cl)ncn1`
Solution: −47.2

Exercise: Report measured MTT Assay (Viability) 4 h d-U937, percentage loss of cell viability; entry is `CNC(=O)Nc1cc(Oc2ccc(NC(=O)Nc3cc(C(C)(C)C)nn3-c3ccc(CO)cc3)c3cccnc23)ccn1`
Solution: −13.4

Exercise: Report measured MTT Assay (Viability) 4 h d-U937, percentage loss of cell viability; entry is `CN(C)[C@H]1CCN(C(=O)Nc2cc(Oc3ccc(NC(=O)Nc4cc(C(C)(C)C)nn4-c4ccc(O)cc4)c(Cl)c3Cl)ccn2)C1`
Solution: −3.0

###

Test system: IL-8 release in d-U937 cells
experimentalProtocol: LPS-induced IL-8 release in d-U937 cells
Assay type: cell-based, human
conditionContext: Homo sapiens, dU937
Catalogue of IC50 values
The answer is to be given in nM; state only the numeric part.

Would you please look over these solved cases?
COCC(=O)Nc1cc(Oc2ccc(NC(=O)Nc3cc(C(C)(C)C)nn3-c3ccc(C)cc3)cc2C#N)ccn1 = 7
CNC(=O)Nc1cc(Oc2ccc(NC(=O)Nc3cc(C(C)(C)C)nn3-c3ccc(O)cc3)c(Cl)c2Cl)ccn1 = 6.8
COc1ccc(-n2nc(C(C)(C)C)cc2NC(=O)Nc2ccc(Oc3ccnc(NC(=O)NCCN4CCOCC4)c3)c(Cl)c2Cl)cc1 = 10.3

Now look at this entry.
Exercise: Quote IC50 with test system IL-8 release in d-U937 cells for `COc1ccc(-n2nc(C(C)(C)C)cc2NC(=O)Nc2ccc(Oc3cc(NC(=O)NCCN(C)C)ncn3)c(Cl)c2Cl)cc1`
Solution: 12.9

###

System: IL-8 release in d-U937 cells
experimentalProtocol: LPS-induced IL-8 release in d-U937 cells
Assay type: cell-based, human
conditionContext: Homo sapiens, dU937
Catalogue of pIC50 values
Field pIC50 (float): negative decimal logarithm of the concentration in molar.

CNC(=O)Nc1cc(COc2ccc(NC(=O)Nc3cc(C(C)(C)C)nn3-c3ccc(OC)cc3)c(Cl)c2Cl)ccn1 = 7.32
CCNC(=O)Nc1cc(Oc2ccc(NC(=O)Nc3cc(C(C)(C)C)nn3-c3ccc(OC)cc3)c(Cl)c2Cl)ccn1 = 9.70
COCC(=O)Nc1cc(Oc2ccc(NC(=O)Nc3cc(C(C)(C)C)nn3-c3ccc(C)cc3)c(Br)c2)ccn1 = 7.54

Exercise: Report measured pIC50; entry is `COCC(=O)Nc1cc(Oc2ccc(NC(=O)Nc3cc(C(C)(C)C)nn3-c3ccc(OC)cc3)c(Cl)c2Cl)ccn1`
Solution: 7.68
